Values from ChEMBL document CHEMBL1153845

experiment: Safety index, ratio of IC50 for HEK cells to IC50 for Entamoeba histolytica HM-1:IMSS; format: toxicity, cell-based, HEK293; settings: human, HEK cells (versus Entamoeba histolytica HM-1:IMSS); read-out: Ratio IC50
Metric Name: selectivity ratio

Worked examples follow.
CC1(c2ccc(Cl)cc2)ON=C(c2ccc(Cl)cc2)O1 (configuration not stated) = > 55.5
CC1(c2ccccn2)ON=C(c2ccccc2Cl)O1 (configuration not stated) = > 61.7
CCC1(c2cccc(Cl)c2)ON=C(c2ccc(Cl)cc2)O1 (configuration not stated) = > 55.5
CCC1(c2cccc(Br)c2)ON=C(c2ccccc2Cl)O1 (configuration not stated) = > 55.5
Clc1ccc(C2=NOC(c3cccc(Cl)c3)O2)cc1 (configuration not stated) = > 116
CCC1(c2cccc(Br)c2)ON=C(c2cccc(Cl)c2)O1 (configuration not stated) = > 55.5
Clc1ccc(C2=NOC(c3ccc(Cl)c(Cl)c3)O2)cc1 (configuration not stated) = > 88.5
Cc1ccc(C2ON=C(c3ccccc3Cl)O2)cc1 (configuration not stated) = > 55.5

Lookup result for CC1(c2cccc(Br)c2)ON=C(c2ccc(Cl)cc2)O1 (configuration not stated) ; measured selectivity ratio: > 55.5

Lookup result for Clc1cccc(C2ON=C(c3ccccc3Cl)O2)c1 (configuration not stated) ; measured selectivity ratio: > 139

Lookup result for CCc1ccc(C2ON=C(c3ccc(Cl)cc3)O2)cc1 (configuration not stated) ; measured selectivity ratio: > 55.5

Lookup result for Clc1ccc(C2ON=C(c3ccccc3Cl)O2)cc1 (configuration not stated) ; measured selectivity ratio: > 196
